Tested on: HCT-15 colon
Assay: NCI tumour cell line growth inhibition, 48 h
metric name: TGI

molecule	TGI
OC(c1ccc(-c2ccccc2)cc1)C(F)(F)c1nc2ccccc2o1 (stereo unspecified)	> 100 µM
c1ccc2c3c([nH]c2c1)C1CCCN1CC3 (stereo unspecified)	> 10 µM

Respectfully, I request TGI for each entry included below.
1. O=c1onc2c3ccccc3ncn12
2. COc1cc(C2C3=C(COC3=O)Oc3cc4c(cc32)OCO4)cc(OC)c1OC(C)=O (stereo unspecified)
3. O=C(/C=C/c1csc(-c2ccccc2)n1)NCc1ccc(C(=O)NCc2ccccc2)cc1
4. C[C@@H]1O[C@@H](O[C@H]2CC[C@@]3(C)[C@H](CCC4[C@@H]3C(O)C[C@]3(C)[C@@H](c5ccc(=O)oc5)CC[C@]43O)C2)[C@H](O)[C@H](O)[C@H]1O (stereo partly specified)
5. COc1ccc(N=C2C(=Nc3ccc(OC)cc3)N(c3ccccc3)C(=S)N2N=C=C2Sc3ccccc3N2C)cc1
6. CCOP(=O)(OCC)C(C)(CC)NC (stereo unspecified)

Solution:
1. > 100 µM
2. > 100 µM
3. > 100 µM
4. 0.0209 µM
5. > 100 µM
6. > 100 µM

Respectfully, I request TGI for each entry included below.
1. Cc1ccc(C2=Nc3ccccc3SC(c3cccc([N+](=O)[O-])c3)C2)cc1 (stereo unspecified)
2. O=C1C[C@@H](c2ccccc2)O[C@@H](c2ccccc2)C1
3. CC(C)(C)OC(=O)NCCC1CN(C(=O)c2ccccc2)c2ccccc21 (stereo unspecified)

Solution:
["> 100 µM", "> 100 µM", "> 100 µM"]
